composite z-score values for the compounds below.
# TARGET DESC: Albumin (Bos taurus)
# ASSAY NOTES: compounds binding labelled BSA control protein – biochemical, small-molecule microarray, Alexa647 label, 635/667 nm fluorescence, artefact control for SMM control protein annotation, profiling panel (AID 1118);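 note: score merges 667 nm emission intensity and signal-to-noise per printed compound spot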
# STATED CONDITIONS: BSA-A647 binding, fluorescence 635 nm, higher = more signal
Number only, no unit.

Solved entries (count: 3):
- COMPOUND: "NC(=O)[C@]1(Cc2ccccc2)N=C(c2ccc(OCCCO)cc2)O[C@@H]1c1ccccc1"
  TARGET DESC: "Albumin (Bos taurus)"
  composite z-score: 0.532
- COMPOUND: "CN1C(=O)C2C=CC(C(O)c3ccccc3)N(NC(=O)OC(C)(C)C)C2C1=O (stereo not drawn)"
  TARGET DESC: "Albumin (Bos taurus)"
  composite z-score: 0.959
- COMPOUND: "CCCCCCC#C[Si](O[C@H](c1ccccc1)c1cn([C@H](C)c2ccccc2)nn1)(C(C)C)C(C)C"
  TARGET DESC: "Albumin (Bos taurus)"
  composite z-score: 0.672

Ask: Please give the measured composite z-score for this compound: `COCCOC(=O)N1C(=O)[C@@]2(c3ccccc31)[C@H](c1ccc(O)cc1)N1[C@H](c3ccccc3)[C@H](c3ccccc3)OC(=O)[C@H]1[C@@H]2C(N)=O`
Result: 0.436

Ask: Please give the measured composite z-score for this compound: `Cc1c(NC(=O)/C(C#N)=C/C=C/c2ccccc2)c(=O)n(-c2ccccc2)n1C`
Result: 0.566

Ask: Please give the measured composite z-score for this compound: `COC(=O)[C@@]1(Cc2ccc(OC)cc2)[C@H]2c3cc(C(=O)N4CCCC4)n(CCN4CCOCC4)c3C[C@H]2CN1C(=O)c1ccccc1`
Result: 1.06

Ask: Please give the measured composite z-score for this compound: `COC(=O)C(CC#Cc1ccc2c(c1)[C@]1(C(=O)N2)[C@H](C(=O)N2CCCCCCC2)[C@H]2C(=O)O[C@H](c3ccccc3)[C@H](c3ccccc3)N2[C@@H]1c1ccccc1OCCO)C(=O)OC`
Result: 0.678

Ask: Please give the measured composite z-score for this compound: `CC(C)N1C(=O)c2ccccc2[C@](C)(C(=O)NC2CC2)[C@@H]1c1ccc(CO)cc1`
Result: 0.375
